The measurements presented in this section are drawn from patent US20030129629A1.

# Test system: 60 cancer cell lines (NCI 60 cancer cell line series)
# assay: NCI-DTP in vitro cancer screen, sulforhodamine B (SRB) growth inhibition, 48 hour exposure
# Type: cell-based, human
# conditions_used: Renal 786-0 CL9018
assay_readout: sensitivity classification Low(1)/Medium(2)/High(3)
Quick one: just the number, no unit, thanks!

Please review the following examples before continuing.
CC(=O)O[C@H]1C(=O)[C@@]2(C)[C@H]([C@H](OC(=O)c3ccccc3)[C@]3(O)C[C@H](OC(=O)[C@H](O)[C@@H](NC(=O)c4ccccc4)c4ccccc4)C(C)=C1C3(C)C)[C@]1(OC(C)=O)CO[C@@H]1C[C@@H]2O [TAXOL, paclitaxel, reference compound] :: 2
COc1cccc2c1C(=O)c1c(O)c3c(c(O)c1C2=O)C[C@@](O)(C(=O)CO)C[C@@H]3O[C@H]1C[C@H](N)[C@H](O)[C@H](C)O1 :: 2

Now look at this entry.
Form field sensitivity classification Low(1)/Medium(2)/High(3) for item COc1cccc2c1C(=O)c1c(O)c3c(c(O)c1C2=O)C[C@@](O)(C(C)=O)C[C@@H]3O[C@H]1C[C@H](N)[C@H](O)[C@H](C)O1 on 60 cancer cell lines (NCI 60 cancer cell line series): 2

---

# Tested on: 60 cancer cell lines (NCI 60 cancer cell line series)
# assay: NCI-DTP in vitro cancer screen, sulforhodamine B (SRB) growth inhibition, 48 hour exposure
# Assay type: cell-based, human
# conditions_used: Breast T-47D CL5014
assay_readout: classification of cell line as Low(1), Medium(2), High(3) sensitivity to compound
Quick one: just the number, no unit, thanks!

CS(=O)(=O)OCCCCOS(C)(=O)=O :: 1
O=C(O)CCCc1ccc(N(CCCl)CCCl)cc1 :: 2
COc1cccc2c1C(=O)c1c(O)c3c(c(O)c1C2=O)C[C@@](O)(C(C)=O)C[C@@H]3O[C@H]1C[C@H](N)[C@H](O)[C@H](C)O1 :: 2
O=c1[nH]cc(F)c(=O)[nH]1 :: 2
NC(=O)NO [Hydroxyurea] :: 1

Now look at this entry.
Measured classification of cell line as Low(1), Medium(2), High(3) sensitivity to compound of O=C1c2c(O)ccc(O)c2C(=O)c2c(NCCNCCO)ccc(NCCNCCO)c21 : 2

---

# System: 60 cancer cell lines (NCI 60 cancer cell line series)
# assay: NCI-DTP in vitro cancer screen, sulforhodamine B (SRB) growth inhibition, 48 hour exposure
# Assay type: cell-based, human
# conditions_used: CNS SF-295 CL12015
Structures can show the parent of a compound that is named as a salt.
classification of cell line as Low(1), Medium(2), High(3) sensitivity to compound values by entry
Quick one: just the number, no unit, thanks!

Please review the following examples before continuing.
COc1cc([C@@H]2c3cc4c(cc3[C@@H](O[C@@H]3O[C@@H]5CO[C@@H](c6cccs6)O[C@H]5[C@H](O)[C@H]3O)[C@H]3COC(=O)[C@H]23)OCO4)cc(OC)c1O [Teniposide] :: 2
COc1cccc2c1C(=O)c1c(O)c3c(c(O)c1C2=O)C[C@@](O)(C(=O)CO)C[C@@H]3O[C@H]1C[C@H](N)[C@H](O)[C@H](C)O1 :: 2
CN(Cc1cnc2nc(N)nc(N)c2n1)c1ccc(C(=O)N[C@@H](CCC(=O)O)C(=O)O)cc1 [Methotrexate] :: 3
CS(=O)(=O)OCCCCOS(C)(=O)=O :: 2
COc1cccc2c1C(=O)c1c(O)c3c(c(O)c1C2=O)C[C@@](O)(C(C)=O)C[C@@H]3O[C@H]1C[C@H](N)[C@H](O)[C@H](C)O1 :: 2
CC[C@]1(O)C[C@H]2CN(CCc3c([nH]c4ccccc34)[C@@](C(=O)OC)(c3cc4c(cc3OC)N(C=O)[C@H]3[C@@](O)(C(=O)OC)[C@H](OC(C)=O)[C@]5(CC)C=CCN6CC[C@]43[C@@H]65)C2)C1 [Vincristine sulfate] :: 3

Measured classification of cell line as Low(1), Medium(2), High(3) sensitivity to compound of NC(=O)NO [Hydroxyurea] : 3

Measured classification of cell line as Low(1), Medium(2), High(3) sensitivity to compound of CC(=O)O[C@H]1C(=O)[C@@]2(C)[C@H]([C@H](OC(=O)c3ccccc3)[C@]3(O)C[C@H](OC(=O)[C@H](O)[C@@H](NC(=O)c4ccccc4)c4ccccc4)C(C)=C1C3(C)C)[C@]1(OC(C)=O)CO[C@@H]1C[C@@H]2O [TAXOL, paclitaxel, reference compound] : 2

Measured classification of cell line as Low(1), Medium(2), High(3) sensitivity to compound of O=C1c2c(O)ccc(O)c2C(=O)c2c(NCCNCCO)ccc(NCCNCCO)c21 : 2

Measured classification of cell line as Low(1), Medium(2), High(3) sensitivity to compound of COc1cc([C@@H]2c3cc4c(cc3[C@@H](O[C@@H]3O[C@@H]5CO[C@@H](C)O[C@H]5[C@H](O)[C@H]3O)[C@H]3COC(=O)[C@H]23)OCO4)cc(OC)c1O [Etoposide] : 2

Measured classification of cell line as Low(1), Medium(2), High(3) sensitivity to compound of Sc1ncnc2nc[nH]c12 : 2

Measured classification of cell line as Low(1), Medium(2), High(3) sensitivity to compound of COc1cccc2c1C(=O)c1c(O)c3c(c(O)c1C2=O)C[C@@](O)(C(=O)CO)C[C@@H]3OC1CC(N)CC(C)O1.Cl (some centres unmarked) : 2

Measured classification of cell line as Low(1), Medium(2), High(3) sensitivity to compound of O=c1[nH]cc(F)c(=O)[nH]1 : 2

Measured classification of cell line as Low(1), Medium(2), High(3) sensitivity to compound of CC[C@]1(O)C[C@@H]2CN(CCc3c([nH]c4ccccc34)[C@@](C(=O)OC)(c3cc4c(cc3OC)N(C)[C@H]3[C@@](O)(C(=O)OC)[C@H](OC(C)=O)[C@]5(CC)C=CCN6CC[C@]43[C@@H]65)C2)C1 [Vinblastine sulfate] : 2
